Where these numbers come from: patent US7101878B1

Quick reference for half-life among some molecules
# protocolNotes: Pharmacokinetic studies / bioavailability in rats
# Type: in vivo, rat
# experimentalSetup: female, rat, plasma, rat female
Express it in h; write the number only.

These solved cases illustrate the format of a correct answer.
                                   molecule  measurementname  readoutnumber
0  COc1cc(OC)c(NC(=O)c2ccc(Cc3c(C)ccc4c3OCCC4(C)C)o2)c(OC)c1 [Compound 222]        half-life            3.2
1  COc1cccc(OC)c1NC(=O)c1ccc(Cc2c(C)cc(C)c(Br)c2C)o1 [Compound 140]        half-life            4.6
2  COc1cccc(OC)c1NC(=O)c1ccc(Cc2c(C)cc(C)cc2C)o1 [Compound 126]        half-life            1.9

// switching to the query molecule
IN: Would you kindly share the measured half-life for Cc1ccc(C(C)(C)C)cc1Cc1ccc(C(=O)NCc2cccc(CNc3ccnc(NC[C@H]4CCCO4)n3)c2)o1 [Compound 212] ?
OUT: 1.6

* * *

# testedOn: human GnRH receptor (Homo sapiens, UniProt P30968)
# Construct: expressed in transfected cells; host or cells: HEK 293 (hGnRH-R/293, from Dr. Stuart Sealfon)
# protocolNotes: Radioligand binding, 125I-GnRH-A displacement, membranes of HEK 293 cells with human GnRH receptor
# experimentalSetup: second value marked * (mostly in parentheses); asterisk not explained; read-out: hGnRH IC50, value marked *
measurementName: pIC50
pIC50 is defined as minus the log10 of a concentration measured in mol/L.

These solved cases illustrate the format of a correct answer.
In [3]: df
Out[3]:
                                   compound  readoutnumber
0  Cc1cc2c(cc1Cc1ccc(C(=O)NC[C@H]3CC[C@@H](CNC(=N)N)CC3)o1)C(C)(C)CCC2(C)C           7.40
1  Cc1cc2c(cc1Cc1ccc(C(=O)NCc3cccs3)o1)C(C)(C)CCC2(C)C           6.92

IN: Would you kindly share the measured pIC50 for Cc1cc2c(cc1Cc1ccc(C(=O)NCc3cccnc3)o1)C(C)(C)CCC2(C)C ?
OUT: 6.89

IN: Now consider Cc1cc2c(cc1Cc1ccc(C(=O)NCc3ccccc3F)o1)C(C)(C)CCC2(C)C .
OUT: 6.48

IN: Now consider Cc1cc2c(cc1Cc1ccc(C(=O)NCCOc3ccccc3)o1)C(C)(C)CCC2(C)C .
OUT: 7.10

IN: Now consider Cc1cc2c(cc1Cc1ccc(C(=O)NC[C@H]3CC[C@H](CNC(=N)N)CC3)o1)C(C)(C)CCC2(C)C .
OUT: 7.70

IN: Now consider Cc1cc2c(cc1Cc1ccc(C(=O)NC[C@H]3CC[C@H](C(=O)O)CC3)o1)C(C)(C)CCC2(C)C .
OUT: 6.68

IN: Now consider Cc1cc2c(cc1Cc1ccc(C(=O)NCc3nc4ccccc4[nH]3)o1)C(C)(C)CCC2(C)C .
OUT: 7.40

IN: Now consider Cc1cc2c(cc1Cc1ccc(C(=O)NCC3CCC(CNC(=N)N)CC3)o1)C(C)(C)CCC2(C)C (stereo not drawn) .
OUT: 7.40

* * *

# testedOn: rat GnRH receptor (Rattus norvegicus)
# Sequence (P30969 1-327): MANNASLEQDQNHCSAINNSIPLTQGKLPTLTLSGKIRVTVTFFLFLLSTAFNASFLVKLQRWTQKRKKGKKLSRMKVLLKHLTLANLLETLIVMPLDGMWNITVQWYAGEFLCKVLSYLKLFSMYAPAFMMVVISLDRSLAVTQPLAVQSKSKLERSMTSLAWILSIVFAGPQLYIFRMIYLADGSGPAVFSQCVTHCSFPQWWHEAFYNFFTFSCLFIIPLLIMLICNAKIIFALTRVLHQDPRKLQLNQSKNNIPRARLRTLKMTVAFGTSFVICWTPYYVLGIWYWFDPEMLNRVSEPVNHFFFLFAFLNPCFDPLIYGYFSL
# protocolNotes: Radioligand binding, 125I-GnRH-A, rat pituitary membranes
# Design: membranes were prepared from rat pituitary; from tissue; host or cells: rat pituitary
# experimentalSetup: read-out: rGnRH IC50
measurementName: pIC50
pIC50 is defined as minus the log10 of a concentration measured in mol/L.

These solved cases illustrate the format of a correct answer.
                                   molecule                               testedon  readoutnumber
0  Cc1cc2c(cc1Cc1ccc(C(=O)NCc3ccc(F)cc3)o1)C(C)(C)CCC2(C)C  rat GnRH receptor (Rattus norvegicus)           6.23
1  COCCCNc1ccnc(NCc2cccc(CNC(=O)c3ccc(Cc4cc5c(cc4C)C(C)(C)CCC5(C)C)o3)c2)n1  rat GnRH receptor (Rattus norvegicus)           7.96
2  Cc1cc2c(cc1Cc1ccc(C(=O)NCC3CCC(CNC(=O)C(F)(F)F)CC3)o1)C(C)(C)CCC2(C)C (stereo not drawn)  rat GnRH receptor (Rattus norvegicus)           5.56
3  Cc1cc2c(cc1Cc1ccc(C(=O)NCc3ccc(CNC(=N)N)cc3)o1)C(C)(C)CCC2(C)C  rat GnRH receptor (Rattus norvegicus)           6.59
4  COc1ccc(NC(=O)c2ccc(Cc3cc4c(cc3C)C(C)(C)CCC4(C)C)o2)c(OC)c1  rat GnRH receptor (Rattus norvegicus)           6.97
5  Cc1cc2c(cc1Cc1ccc(C(=O)N3CCC(CNc4nccc(NCC5CCCO5)n4)CC3)o1)C(C)(C)CCC2(C)C (stereo not drawn)  rat GnRH receptor (Rattus norvegicus)           5.69

IN: Would you kindly share the measured pIC50 for COc1cccc(OC)c1NC(=O)c1ccc(Cc2cc(C(C)(C)C)ccc2C)o1 ?
OUT: 7.64

IN: Now consider Cc1cc2c(cc1Cc1ccc(C(=O)NCc3ccc(-c4csnn4)cc3)o1)C(C)(C)CCC2(C)C .
OUT: 6.43

IN: Now consider Cc1cc2c(cc1Cc1ccc(C(=O)NCc3ccc(CNc4nccc(NCC5CCCO5)n4)cc3)o1)C(C)(C)CCC2(C)C (stereo not drawn) .
OUT: 7.46

IN: Now consider COc1ccc(CNC(=O)c2ccc(Cc3cc4c(cc3C)C(C)(C)CCC4(C)C)o2)c2ccccc12 .
OUT: 5.86

* * *

# testedOn: human GnRH receptor (Homo sapiens)
# Construct: expressed in transfected cells; host or cells: HEK 293 (hGnRH-R/293, from Dr. Stuart Sealfon)
# Sequence (P30968 1-328): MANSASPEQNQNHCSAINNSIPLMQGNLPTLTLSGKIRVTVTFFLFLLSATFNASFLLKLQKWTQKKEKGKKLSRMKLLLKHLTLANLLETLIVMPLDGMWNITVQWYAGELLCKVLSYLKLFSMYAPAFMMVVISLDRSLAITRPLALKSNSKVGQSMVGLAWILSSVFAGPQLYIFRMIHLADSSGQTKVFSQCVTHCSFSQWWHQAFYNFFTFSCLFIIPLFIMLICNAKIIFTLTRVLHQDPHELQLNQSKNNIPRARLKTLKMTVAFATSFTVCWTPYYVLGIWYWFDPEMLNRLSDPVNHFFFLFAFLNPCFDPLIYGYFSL
# protocolNotes: Radioligand binding, 125I-GnRH-A displacement, membranes of HEK 293 cells with human GnRH receptor
# experimentalSetup: 1 h, substrate remaining; 10 uM compound; closer to zero = closer to 100% inhibition; read-out: S%R 10 uM hGnRHR
measurementName: remaining activity at 10 µM (%)
Express it in %; write the number only.

These solved cases illustrate the format of a correct answer.
In [3]: df
Out[3]:
                                   compound  readoutnumber
0  Cc1cc2c(cc1Cc1ccc(C(=O)Nc3ccccc3C(=O)NC3CC45CCN4CCC35)o1)C(C)(C)CCC2(C)C (centres unmarked) [Compound 349]             47
1  Cc1cc2c(cc1Cc1ccc(C(=O)Nc3cccc4c(=O)[nH][nH]c(=O)c34)o1)C(C)(C)CCC2(C)C [Compound 387]             52
2  Cc1cc2c(cc1Cc1ccc(C(=O)Nc3ccccc3C(=O)NCC(C)(C)CN(C)C)o1)C(C)(C)CCC2(C)C [Compound 344]             57
3  Cc1cc2c(cc1Cc1ccc(C(=O)Nc3ccc4c(=O)[nH][nH]c(=O)c4c3)o1)C(C)(C)CCC2(C)C [Compound 377]             39

IN: Would you kindly share the measured remaining activity at 10 µM for Cc1cc2c(cc1Cc1ccc(C(=O)Nc3ccc(Br)c4ccccc34)o1)C(C)(C)CCC2(C)C [Compound 388] ?
OUT: 30

IN: Now consider Cc1cc2c(cc1Cc1ccc(C(=O)Nc3ccccc3C)o1)C(C)(C)CCC2(C)C [Compound 362] .
OUT: 1
